# Experiment: Henry solubility constant Hcp at 298.15 K (mol/(m3 Pa))
# Condition Set: reference: Wright et al. (1992)
Listed compounds paired with reported Henry solubility constant Hcp

{"Smiles Representation": "BrC(Br)Br", "Assay Endpoint": "Henry solubility constant Hcp", "Data Value": 0.024}

Q: GET /values?readout=Henry solubility constant Hcp&item= ClCC(Cl)(Cl)Cl
A: 0.004

Q: So what does the record say about Henry solubility constant Hcp for BrCBr ?
A: 0.011

---

# Experiment: Henry solubility constant Hcp at 298.15 K (mol/(m3 Pa))
# Condition Set: reference: Wright et al. (1992)
The compounds listed here are annotated with their Henry solubility constant Hcp.

{"Compound": "CC(Cl)CCl (centres undefined)", "Henry solubility constant Hcp": 0.0036}
{"Compound": "ClC(Cl)C(Cl)Cl", "Henry solubility constant Hcp": 0.022}
{"Compound": "ClCC(Cl)Cl", "Henry solubility constant Hcp": 0.011}

Let's switch to this compound now.
Q: Requested field: Henry solubility constant Hcp. Item: ClC=CCCl
A: 0.0064

---

# Experiment: Henry solubility constant Hcp at 298.15 K (mol/(m3 Pa))
# Condition Set: reference: Wright et al. (1992)
Listing of recorded Henry solubility constant Hcp by entry.
Number only, please.

{"Smiles Representation": "CC(Cl)(Cl)Cl", "Henry solubility constant Hcp": 0.0006}
{"Smiles Representation": "ClC(Cl)(Cl)Cl", "Henry solubility constant Hcp": 0.00029}

Q: Look at this molecule and give its reported Henry solubility constant Hcp. ClCCl
A: 0.0039

Q: Give the measured Henry solubility constant Hcp of ClC=C(Cl)Cl .
A: 0.0011
